target: Serine protease 1 (Bos taurus); assay: Inhibitory activity against Trypsin; Inactive
Sequence (P00760 whole entry): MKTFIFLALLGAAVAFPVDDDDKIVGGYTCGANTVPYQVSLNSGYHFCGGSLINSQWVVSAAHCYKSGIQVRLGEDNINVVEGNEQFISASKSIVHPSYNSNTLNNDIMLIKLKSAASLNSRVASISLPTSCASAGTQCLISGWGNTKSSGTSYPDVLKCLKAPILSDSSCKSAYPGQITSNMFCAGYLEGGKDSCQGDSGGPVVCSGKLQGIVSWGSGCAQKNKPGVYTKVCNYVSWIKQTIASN
property_label: Ki (µM)
Form entry: value (µM) — number only.

Give the reported Ki for this compound. Cc1ccc(NS(=O)(=O)Cc2ccccc2)c(=O)n1CC(=O)NCC1CCc2nc(N)ncc2C1 (stereo unspecified)
640

====

test: pKa value was determined; format: physicochemical
property_label: pKa
Respond with the number and no other words.

compound="Cc1ccc(NS(=O)(=O)Cc2ccccc2)c(=O)n1CC(=O)NC1CCc2nc(N)sc2C1 (stereo not given)" property_label=pKa recorded_value=6.1
compound="Cc1ccc(NS(=O)(=O)Cc2ccccc2)c(=O)n1CC(=O)NC1CCc2n[nH]cc2C1 (stereo not given)" property_label=pKa recorded_value=3.7
compound="Cc1ccc(NS(=O)(=O)Cc2ccccc2)c(=O)n1CC(=O)NCC1CCc2n[nH]cc2C1 (stereo not given)" property_label=pKa recorded_value=4

Give pKa for Cc1ccc(NS(=O)(=O)Cc2ccccc2)c(=O)n1CC(=O)NC1CCc2nn(C)cc2C1 (stereo not given)
3.2

Provide pKa value for the following compound: Cc1ccc(NS(=O)(=O)Cc2ccccc2)c(=O)n1CC(=O)NCC1CCc2nn(C)cc2C1 (stereo not given)
3.6
